// values below are reported minimal effective dose
test system: behaviors of compound-treated mice; assay: Neuropharmacological Assay (SmartCube); format: in vivo; settings: Mus musculus, ip, 0.25 h, dose having 50% or more total activity in SmartCube, i.p., read-out: MED (minimal effective dose)
Structures can show the parent of a compound that is named as a salt.

compound: CNC[C@@H]1OCCc2c(-c3ccno3)cccc21 [Compound 94]
minimal effective dose: 10 to 30 mg/kg
//
compound: NC[C@@H]1OCCc2c(-c3cocn3)cccc21 [Compound 100, HCl salt]
minimal effective dose: 3 to 10 mg/kg
//
compound: NC[C@H]1OCCc2c(-c3ccno3)cccc21 (single isomer, unassigned) [Compound 93, hydrochloride salt]
minimal effective dose: 10 to 30 mg/kg
//
compound: NC[C@H]1OCCc2c(-c3ccnnc3)cccc21 (single isomer, unassigned) [Compound 79, hydrochloride salt]
minimal effective dose: 3 to 10 mg/kg
//
compound: CNC[C@@H]1OCCc2c(-c3cncs3)cccc21 (single isomer, unassigned) [Compound 68, hydrochloride salt]
minimal effective dose: 3 to 10 mg/kg
//
compound: CCNC[C@H]1OCCc2c(-c3ccncc3)cccc21 (single isomer, unassigned) [Compound 67, hydrochloride salt]
minimal effective dose: ≤ 3 mg/kg
//
compound: NC[C@H]1OCCc2c(-c3c[nH]cn3)cccc21 (single isomer, unassigned) [Compound 113, hydrochloride salt]
minimal effective dose: 3 to 10 mg/kg
//
compound: CNC[C@@H]1OCCc2cc(-c3cccnc3)ccc21 [Compound 5, bis-hydrochloride]
minimal effective dose: 3 to 10 mg/kg
//
compound: CNC[C@H]1OCCc2c(-c3ncco3)cccc21 [Compound 105, dihydrochloride]
minimal effective dose: 3 to 10 mg/kg
//
compound: CNC[C@@H]1OCCc2c(-c3ccnc(C)c3)cccc21 (single isomer, unassigned) [Compound 120, hydrochloride salt]
minimal effective dose: 10 to 30 mg/kg
//
compound: NC[C@@H]1OCCCc2c(-c3cncs3)cccc21 (single isomer, unassigned) [Compound 170, hydrochloride salt]
minimal effective dose: 3 to 10 mg/kg
//
compound: NCC1OCCc2c(-c3cnccn3)cccc21 (centres unmarked) [Compound 63, hydrochloride salt]
minimal effective dose: 3 to 10 mg/kg
//
compound: NC[C@@H]1OCCc2c(-c3ccccn3)cccc21 (single isomer, unassigned) [Compound 45, hydrochloride]
minimal effective dose: 10 to 30 mg/kg
//
compound: CNC[C@@H]1OCCCc2c(-c3ccncc3)cccc21 (single isomer, unassigned) [Compound 148]
minimal effective dose: 10 to 30 mg/kg
//
compound: NC[C@H]1OCCc2c(-c3ccon3)cccc21 (single isomer, unassigned) [Compound 89, hydrochloride salt]
minimal effective dose: ≤ 3 mg/kg
//
compound: CNC[C@H]1OCCc2c(-c3cnco3)cccc21 (single isomer, unassigned) [Compound 97, hydrochloride salt]
minimal effective dose: ≤ 3 mg/kg
//
compound: NC[C@H]1OCCc2c(-c3cn[nH]c3)cccc21 [Compound 117, hydrochloride salt]
minimal effective dose: 3 to 10 mg/kg
//
compound: CNC[C@@H]1OCCc2c(-c3cocn3)cccc21 [Compound 102, HCl salt]
minimal effective dose: 10 to 30 mg/kg
//
compound: NC[C@@H]1OCc2c(-c3ccncc3)cccc21 (single isomer, unassigned) [Compound 37, hydrochloride salt]
minimal effective dose: 10 to 30 mg/kg
//
compound: NC[C@@H]1OCCc2c(-c3ccnnc3)cccc21 (single isomer, unassigned) [Compound 78, hydrochloride salt]
minimal effective dose: 3 to 10 mg/kg
//
compound: NC[C@@H]1OCCc2c(-c3cncnc3)cccc21 (single isomer, unassigned) [Compound 27, hydrochloride salt]
minimal effective dose: > 30 mg/kg
//
compound: NC[C@H]1OCCc2c(-c3cccnc3)cccc21 [Compound 16, hydrochloride]
minimal effective dose: ≤ 3 mg/kg
//
compound: Cc1cc(-c2cccc3c2CCO[C@H]3CN)cc(C)n1 [Compound 126, dihydrochloride]
minimal effective dose: 10 to 30 mg/kg
//
compound: NC[C@@H]1OCCc2c(-c3cccnc3)cccc21 [Compound 15, hydrochloride]
minimal effective dose: 10 to 30 mg/kg
//
compound: CNC[C@H]1OCCc2c(-c3ccccn3)cccc21 (single isomer, unassigned) [Compound 44, hydrochloride salt]
minimal effective dose: ≤ 3 mg/kg
//
compound: NC[C@H]1OCCc2ccc(-c3cccnc3)cc21 (single isomer, unassigned) [Compound 12, hydrochloride]
minimal effective dose: 10 to 30 mg/kg
//
compound: NC[C@@H]1OCCc2c(-c3cncs3)cccc21 (single isomer, unassigned) [Compound 70, hydrochloride salt]
minimal effective dose: 3 to 10 mg/kg
//
compound: NC[C@H]1OCCCc2c(-c3cncs3)cccc21 (single isomer, unassigned) [Compound 171, hydrochloride salt]
minimal effective dose: 10 to 30 mg/kg
//
compound: CNC[C@@H]1OCCc2cc(-c3ncccn3)ccc21 [Compound 21, hydrochloride salt]
minimal effective dose: 10 to 30 mg/kg

* * *

system: behaviors of compound-treated mice; experiment: Neuropharmacological Assay (SmartCube); type: in vivo; details: SmartCube, i.p. 15 min before test, most efficacious dose(s)
Where a name gives a salt, the structure may show the parent alone.
measurementName: DP: anti-depressant (probability that activity matches class)

compound: c1cc(-c2ccncc2)c2c(c1)[C@@H](CNC1CC1)OCC2 (single isomer, unassigned) [Compound 181, hydrochloride salt]
targetSystem: behaviors of compound-treated mice
endpointValue: ++++ (50% ≤ ++++)

compound: NC[C@H]1OCCc2c1cccc2-n1cccn1 [Compound 189, hydrochloride salt]
targetSystem: behaviors of compound-treated mice
endpointValue: ++ (5% ≤ ++ <25%)

compound: NC[C@@H]1OCCc2c1cccc2-n1ccnc1 [Compound 184, hydrochloride salt]
targetSystem: behaviors of compound-treated mice
endpointValue: + (LOQ ≤ + <5%)

compound: NC[C@H]1OCCc2c1cccc2-n1ccnc1 [Compound 185, hydrochloride salt]
targetSystem: behaviors of compound-treated mice
endpointValue: ++ (5% ≤ ++ <25%)

compound: CNC[C@@H]1OCCc2c1cccc2-n1cccn1
targetSystem: behaviors of compound-treated mice
endpointValue: + (LOQ ≤ + <5%)

compound: CNC[C@H]1OCCc2c1cccc2-n1ccnc1 [Compound 183, hydrochloride salt]
targetSystem: behaviors of compound-treated mice
endpointValue: ++++ (50% ≤ ++++)

compound: NC[C@@H]1OCCc2c1cccc2-n1cccn1 [Compound 188, hydrochloride salt]
targetSystem: behaviors of compound-treated mice
endpointValue: + (LOQ ≤ + <5%)

compound: CNC[C@H]1OCCc2c1cccc2-n1cccn1
targetSystem: behaviors of compound-treated mice
endpointValue: ++++ (50% ≤ ++++)

* * *

tested on: behaviors of compound-treated mice; assay: Neuropharmacological Assay (SmartCube); assay type: in vivo; settings: SmartCube, i.p. 15 min before test, most efficacious dose(s)
Counter-ions that a name gives are not always drawn.
measurementName: AX: anxiolytic (probability that activity matches class)

compound: NC[C@@H]1OCCc2c1cccc2-n1cccn1 [Compound 188, hydrochloride salt]
endpointValue: ++ (5% ≤ ++ <25%)
--
compound: NC[C@H]1OCCc2c1cccc2-n1ccnc1 [Compound 185, hydrochloride salt]
endpointValue: ++ (5% ≤ ++ <25%)
--
compound: CNC[C@H]1OCCc2c1cccc2-n1cccn1
endpointValue: + (LOQ ≤ + <5%)
--
compound: NC[C@H]1OCCc2c1cccc2-n1cccn1 [Compound 189, hydrochloride salt]
endpointValue: ++ (5% ≤ ++ <25%)
--
compound: CNC[C@@H]1OCCc2c1cccc2-n1cccn1
endpointValue: ++ (5% ≤ ++ <25%)
--
compound: CNC[C@H]1OCCc2c1cccc2-n1ccnc1 [Compound 183, hydrochloride salt]
endpointValue: + (LOQ ≤ + <5%)
--
compound: NC[C@@H]1OCCc2c1cccc2-n1ccnc1 [Compound 184, hydrochloride salt]
endpointValue: ++ (5% ≤ ++ <25%)
--
compound: c1cc(-c2ccncc2)c2c(c1)[C@@H](CNC1CC1)OCC2 (single isomer, unassigned) [Compound 181, hydrochloride salt]
endpointValue: + (LOQ ≤ + <5%)

* * *

system: behaviors of compound-treated mice; assay: Neuropharmacological Assay (SmartCube); format: in vivo; conditions: Mus musculus, ip, 0.25 h, dose having 50% or more total activity in SmartCube, i.p., read-out: MED (minimal effective dose)
Where a name gives a salt, the structure may show the parent alone.
# reported minimal effective dose; entries follow

compound: CNC[C@H]1OCCc2c(-c3cnoc3)cccc21 (single isomer, unassigned) [Compound 85, hydrochloride salt]
minimal effective dose: ≤ 3 mg/kg
//
compound: Cc1cc(-c2cccc3c2CCO[C@H]3CN)ccn1 (single isomer, unassigned) [Compound 122, hydrochloride salt]
minimal effective dose: 10 to 30 mg/kg
//
compound: CNC[C@H]1OCCc2cccc(-c3cccnc3)c21 [Compound 2, bis-hydrochloride]
minimal effective dose: > 30 mg/kg
//
compound: NC[C@@H]1OCCc2c(-c3cn[nH]c3)cccc21 [Compound 116, hydrochloride salt]
minimal effective dose: 3 to 10 mg/kg
//
compound: CNC[C@@H]1OCCc2c(-c3ncco3)cccc21 [Compound 104, hydrochloride salt]
minimal effective dose: > 30 mg/kg
//
compound: c1cc(-c2ccncc2)c2c(c1)[C@H](CNC1CC1)OCC2 (single isomer, unassigned) [Compound 180, hydrochloride salt]
minimal effective dose: 3 to 10 mg/kg
//
compound: NC[C@@H]1OCCc2c(-c3cnccn3)cccc21 (single isomer, unassigned) [Compound 82, hydrochloride salt]
minimal effective dose: 10 to 30 mg/kg
//
compound: CCNC[C@@H]1OCCc2c(-c3ccncc3)cccc21 (single isomer, unassigned) [Compound 66, hydrochloride salt]
minimal effective dose: 10 to 30 mg/kg
//
compound: CNC[C@@H]1OCCc2c(-c3ccnnc3)cccc21 (single isomer, unassigned) [Compound 76, hydrochloride salt]
minimal effective dose: 3 to 10 mg/kg
//
compound: NC[C@H]1OCCc2c(-c3cnco3)cccc21 (single isomer, unassigned) [Compound 99, hydrochloride salt]
minimal effective dose: ≤ 3 mg/kg
//
compound: NC[C@H]1OCCc2c(-c3cncs3)cccc21 (single isomer, unassigned) [Compound 71, hydrochloride salt]
minimal effective dose: ≤ 3 mg/kg
//
compound: CNC[C@@H]1OCCc2c(-c3cnoc3)cccc21 (single isomer, unassigned) [Compound 84, hydrochloride salt]
minimal effective dose: 3 to 10 mg/kg
//
compound: NC[C@@H]1OCCc2c(-c3cnco3)cccc21 (single isomer, unassigned) [Compound 98, hydrochloride salt]
minimal effective dose: ≤ 3 mg/kg
//
compound: NC[C@H]1OCCc2ccc(-c3ccncc3)cc21 [Compound 48, hydrochloride]
minimal effective dose: 3 to 10 mg/kg
